Tested on: ATP;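 also: ATP exposure 15 min at 22 °C before imaging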
Test: switch fluorescence ratio, 500 uM ATP over buffer (Cy3 cluster intensity, sum of 5 cycles each) (fold (ratio)); higher = stronger signal-on switching upon ATP binding; sequences stand for … in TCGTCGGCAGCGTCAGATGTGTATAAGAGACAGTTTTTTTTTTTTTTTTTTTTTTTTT…TC
Details: aptamer strand: ATP DNA aptamer (quencher-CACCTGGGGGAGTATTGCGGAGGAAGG + anchor), 100 nM annealed; ATP concentration: 500 uM
parameter: switch fluorescence ratio

{"residue-codes": "TTTCCGTTTG", "observed-measurement": 1.16}
{"residue-codes": "GCGGGGGATG", "observed-measurement": 1.01}
{"residue-codes": "TAATCGCGGC", "observed-measurement": 1.31}
{"residue-codes": "TGGGAAAATT", "observed-measurement": 1}
{"residue-codes": "TACGATATTT", "observed-measurement": 1.1}
{"residue-codes": "GGCTTTGAGG", "observed-measurement": 1.01}
{"residue-codes": "GCGTGCAGGA", "observed-measurement": 1.03}
{"residue-codes": "ATAGGGGTGG", "observed-measurement": 1.03}
{"residue-codes": "TAAGTTGTTT", "observed-measurement": 0.996}
{"residue-codes": "ATCGGAGCGG", "observed-measurement": 1.02}
{"residue-codes": "CGATTTTGA", "observed-measurement": 0.969}
{"residue-codes": "AACGTTCGCC", "observed-measurement": 0.987}
{"residue-codes": "AGTTGTTTAG", "observed-measurement": 1.01}
{"residue-codes": "TTAGACCGTG", "observed-measurement": 0.956}
{"residue-codes": "CATTGTAAGT", "observed-measurement": 1}
{"residue-codes": "CACGGGGGAC", "observed-measurement": 1.06}
{"residue-codes": "TTTTACTGTT", "observed-measurement": 1.12}
{"residue-codes": "AAAAGCGGAT", "observed-measurement": 1.03}
{"residue-codes": "GGTTCTGTGG", "observed-measurement": 1.03}
{"residue-codes": "ATCAGTGGTT", "observed-measurement": 0.974}
{"residue-codes": "TAGATTTTAT", "observed-measurement": 1.01}
